B1: LINE1-full (parent)
chain: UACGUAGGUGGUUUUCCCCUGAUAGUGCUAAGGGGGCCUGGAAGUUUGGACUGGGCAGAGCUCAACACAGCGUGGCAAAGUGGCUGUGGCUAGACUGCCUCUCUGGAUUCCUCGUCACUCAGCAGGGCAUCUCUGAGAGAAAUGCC

Variants of: B1
assay-explanation: self-cleavage, relative activity (ratio to wild type); higher = more cleavage; in vitro, sequencing; the parent is a self-cleaving ribozyme
Provide the recorded self-cleavage for the entries that follow.
// no unit string in output, number only

Query: Entry UACGUAGGUGGUUUUCCCCUGAUAGUGCUAAGGGGGCCUGGUAGUUUGGACUGGGCAGAGCUCAACACAGCGUGGCAAAGUGGCUGUGGCUAGACUGCCUCUCUGGAUUCCUCGUCACUCAGCAGGGCAUCUCUGAGAGAAAUGCC has what self-cleavage?
Result: 0.98

Query: Could you share which self-cleavage value was measured for UGCGUAGGUGGUUUUCCCCUGAUAGUGCUAGGGGGGCCUGGAAGUUUGGACUGGGCAGAGCUCAACACAGCGUGGCAAAGUGGCUGUGGCUAGACUGCCUCUCUGGAUUCCUCGUCACUCAGCAGGGCAUCUCUGAGAGAAAUGCC ?
Result: 1

Query: Which self-cleavage value belongs to UACGUAGGUGGUUUUCCCCUGAUAGUGCUAAGGGGGCCGGGAAGUUUGGACUGGGCAGAGCUCAACACAGCGUGGCAAAGUGGCUGUGGCUAGACUGCCUCUCUGGAUUCCUCGUCACUCAGCAGGGCAUCUCUGAGGGAAAUGCC ?
Result: 1.01
